B1: Zinc finger homeobox protein 3, residues 2643 to 2698; numbered along this chain, Q15911 (parent)
chain: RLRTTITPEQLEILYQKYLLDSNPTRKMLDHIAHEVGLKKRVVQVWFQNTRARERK

# Variants of: B1
# ASSAY_REMARKS: abundance fitness (aPCA) (normalised: wild type 0, dead -1); higher = more abundant; growth selection in yeast, the domain comes from the species named
# TEST_CONDITIONS: Homo sapiens
abundance fitness values, listed per item

{"VARIANT_DESCRIPTOR": "D21K", "abundance fitness": -0.924}
{"VARIANT_DESCRIPTOR": "E9G", "abundance fitness": -0.234}
{"VARIANT_DESCRIPTOR": "E54Y", "abundance fitness": -0.438}
{"VARIANT_DESCRIPTOR": "T7S", "abundance fitness": -0.169}
{"VARIANT_DESCRIPTOR": "F47A", "abundance fitness": -0.904}
{"VARIANT_DESCRIPTOR": "Y15W", "abundance fitness": 0.072}
{"VARIANT_DESCRIPTOR": "M28I", "abundance fitness": -0.557}
{"VARIANT_DESCRIPTOR": "R55M", "abundance fitness": 0.483}
{"VARIANT_DESCRIPTOR": "Y15V", "abundance fitness": -0.123}
{"VARIANT_DESCRIPTOR": "E9C", "abundance fitness": -0.712}
{"VARIANT_DESCRIPTOR": "Q44P", "abundance fitness": -0.723}
{"VARIANT_DESCRIPTOR": "R41P", "abundance fitness": -0.144}
{"VARIANT_DESCRIPTOR": "N23D", "abundance fitness": -0.336}
{"VARIANT_DESCRIPTOR": "E54F", "abundance fitness": -0.167}
{"VARIANT_DESCRIPTOR": "R26K", "abundance fitness": 0.123}
{"VARIANT_DESCRIPTOR": "R55Q", "abundance fitness": 0.216}
{"VARIANT_DESCRIPTOR": "R55K", "abundance fitness": 0.496}
{"VARIANT_DESCRIPTOR": "N49S", "abundance fitness": -0.029}
{"VARIANT_DESCRIPTOR": "R51C", "abundance fitness": -0.044}
{"VARIANT_DESCRIPTOR": "K40M", "abundance fitness": 0.192}
{"VARIANT_DESCRIPTOR": "L14T", "abundance fitness": -1.04}
{"VARIANT_DESCRIPTOR": "V42N", "abundance fitness": -0.02}
